Molecular target: SARS-CoV-1 RBD (SARS-CoV (SARS-CoV-1), isolate not …, UniProt P59594)

[
  {
    "Binder": "GAR01 (antibody, V domains shown) VH: QVQLVQSEGGVVQPGRSLRLSCTASGFTFSSYGMHWVRQAPGKGLEWVALISYDGSDKYYADSVKGRFTISRDNSKNTLYLQMNSLRPEDTAVFYCAKGGWYGSSSGFDYWGQGTLVTVSS VL: DIQMTQSPSSLSASVGDRVTITCQASQDISNYLNWYQQKPGKAPKLLIYDASNLETGVPSRFSGSGSGTDFIFTISSLQPEDIATYYCQQYHDVPRTFGQGTKVEIK",
    "binding result": "binds"
  },
  {
    "Binder": "GAR11 (antibody, V domains shown) VH: EVQLVQSGTEVKKPGSSVKVSCEASGGTFSKYAITWVRQAPGQGLEWMGGIIPIFGTANYAQKFQDRVKITADEITSIAYMELNSLSSEDTAVYYCARDNRGRGFGEILSYYYGMDVWGQGTTVTVSS VL: SALTQPASVSGSPGQSITISCTGTSSDVGGYNYVSWYQQHPGKAPKLMIYDVATRPSGVSDRFSGSKSGNTASLTISGLQAEDEADYYCSSYTSSNTLAFGGGTKLTVL",
    "binding result": "binds"
  },
  {
    "Binder": "GAR14 (antibody, V domains shown) VH: EVQLVESGGGLVQPGGSLRLSCAASGFTFSRYDMHWVRQTTGKGLEWVSAIGTAGDTYYPDSVKGRFTISRENAKNSLHLQMNSLRVGDTAVYFCARAVDCSDISCYSNWYFDLWGRGTLVTVSS VL: DIQLTQSPSSLSASVGDRVTITCRASQTISSFLNWYQQKPGKAPHLLIYAASSLQSGVPSRFSGSGSGTDFTLTITNLQPEDFATYYCQQSYSTPPITFGQGTRLEIK",
    "binding result": "binds"
  }
]

Attribution: paper PMC9907207
